Experiment: Mouse pharmacokinetics studies
Type: in vivo, CD-1 mice
Conditions: Table 20
reported_property: ƒAUC/MIC
Would you mind answering with just the numeric figure?

Sample records with ƒAUC/MIC:
compound: CO[C@H]1/C=C/O[C@@]2(C)Oc3c(C)c(O)c4c(c3C2=O)C2=NC3(CCN(CC(C)C)CC3)NC2=C(NC(=O)/C(C)=C/C=C/[C@H](C)[C@H](O)[C@@H](C)[C@@H](O)[C@@H](C)[C@H](OC(=O)c2cccnc2)[C@@H]1C)C4=O
test_result: 45.0

compound: CO[C@H]1/C=C/O[C@@]2(C)Oc3c(C)c(O)c4c(c3C2=O)C2=NC3(CCN(CC(C)C)CC3)NC2=C(NC(=O)/C(C)=C\C=C\[C@H](C)[C@H](O)[C@@H](C)[C@@H](O)[C@@H](C)[C@H](OC(C)=O)[C@@H]1C)C4=O [rifabutin, reference compound]
test_result: 0.22

compound: CO[C@H]1/C=C/O[C@@]2(C)Oc3c(C)c(O)c4c(c3C2=O)C2=NC3(CCN(CC(C)C)CC3)NC2=C(NC(=O)/C(C)=C/C=C/[C@H](C)[C@H](O)[C@@H](C)[C@@H](O)[C@@H](C)[C@H](OC(=O)c2cncnc2)[C@@H]1C)C4=O
test_result: 87.8

Kindly review the next compound as well.
*Q* Answer with the recorded ƒAUC/MIC of "COc1ccccc1NC(=O)O[C@H]1[C@H](C)[C@H](O)[C@H](C)[C@@H](O)[C@@H](C)/C=C/C=C(\C)C(=O)NC2=C3NC4(CCN(CC(C)C)CC4)N=C3c3c(c(O)c(C)c4c3C(=O)[C@@](C)(O/C=C/[C@H](OC)[C@H]1C)O4)C2=O" only.
*A* 0.9

----------
Known ƒu of a selection of compounds
Test: Plasma protein binding assay (rapid equilibrium dialysis)
Assay type: in vitro ADME
Please respond with the number in % and leave the unit unwritten.

Sample records with ƒu:
compound: CO[C@H]1/C=C/O[C@@]2(C)Oc3c(C)c(O)c4c(c3C2=O)C2=NC3(CCN(CC(C)C)CC3)NC2=C(NC(=O)/C(C)=C/C=C/[C@H](C)[C@H](O)[C@@H](C)[C@@H](O)[C@@H](C)[C@H](OC(=O)c2cccc(-c3ccccc3)c2)[C@@H]1C)C4=O [UMN18]
ƒu [%]: 0.01
--
compound: CO[C@H]1/C=C/O[C@@]2(C)Oc3c(C)c(O)c4c(c3C2=O)C2=NC3(CCN(CC(C)C)CC3)NC2=C(NC(=O)/C(C)=C/C=C/[C@H](C)[C@H](O)[C@@H](C)[C@@H](O)[C@@H](C)[C@H](OC(=O)Nc2ccccc2-c2ccccc2)[C@@H]1C)C4=O [UMN36]
ƒu [%]: 0.02
--
compound: CO[C@H]1/C=C/O[C@@]2(C)Oc3c(C)c(O)c4c(c3C2=O)C2=NC3(CCN(CC(C)C)CC3)NC2=C(NC(=O)/C(C)=C/C=C/[C@H](C)[C@H](O)[C@@H](C)[C@@H](O)[C@@H](C)[C@H](OC(=O)Nc2nncs2)[C@@H]1C)C4=O [UMN69]
ƒu [%]: 5.3

Kindly review the next compound as well.
*Q* Answer with the recorded ƒu of CO[C@H]1/C=C/O[C@@]2(C)Oc3c(C)c(O)c4c(c3C2=O)C2=NC3(CCN(CC(C)C)CC3)NC2=C(NC(=O)/C(C)=C/C=C/[C@H](C)[C@H](O)[C@@H](C)[C@@H](O)[C@@H](C)[C@H](OC(=O)C2CCCC2)[C@@H]1C)C4=O [UMN81] only.
*A* 0.05

----------
Assay: Plasma protein binding assay (rapid equilibrium dialysis)
Format: in vitro ADME
Known ƒu of a selection of compounds
Please respond with the number in % and leave the unit unwritten.

cpd_smiles: CO[C@H]1/C=C/O[C@@]2(C)Oc3c(C)c(O)c4c(c3C2=O)C2=NC3(CCN(CC(C)C)CC3)NC2=C(NC(=O)/C(C)=C/C=C/[C@H](C)[C@H](O)[C@@H](C)[C@@H](O)[C@@H](C)[C@H](OC(=O)C2CCCCC2)[C@@H]1C)C4=O
unit_of_measurement: %
test_result: 0.03

Kindly review the next compound as well.
*Q* Answer with the recorded ƒu of "CO[C@H]1/C=C/O[C@@]2(C)Oc3c(C)c(O)c4c(c3C2=O)C2=NC3(CCN(CC(C)C)CC3)NC2=C(NC(=O)/C(C)=C/C=C/[C@H](C)[C@H](O)[C@@H](C)[C@@H](O)[C@@H](C)[C@H](OC(=O)Nc2ccccc2)[C@@H]1C)C4=O" only.
*A* 0.1

----------
Test: Plasma protein binding assay (rapid equilibrium dialysis)
Format: in vitro ADME
Details: 4 h, 10000 ng/mL
Procedure: DMSO stocks were spiked into plasma to a concentration of 10,000 ng/mL. 200 μL of spiked plasma was pipetted into the sample chamber of the rapid equilibrium dialysis (RED) cartridge. 350 μL of PBS was added to the adjacent cartridge. The plate containing the RED was sealed and incubated at 37° C. on the thermomixer at 300 RPM for 4 h. […] Samples were processed and quantified as specified in the LC-MS/MS analytical method.
reported_property: ƒu (%)
Please respond with the number in % and leave the unit unwritten.

Sample records with ƒu:
cpd_smiles: CO[C@H]1/C=C/O[C@@]2(C)Oc3c(C)c(O)c4c(c3C2=O)C2=NC3(CCN(CC(C)C)CC3)NC2=C(NC(=O)/C(C)=C/C=C/[C@H](C)[C@H](O)[C@@H](C)[C@@H](O)[C@@H](C)[C@H](OC(=O)Nc2cscn2)[C@@H]1C)C4=O
ƒu / %: 1.7
--
cpd_smiles: CO[C@H]1/C=C/O[C@@]2(C)Oc3c(C)c(O)c4c(c3C2=O)C2=NC3(CCN(CC(C)C)CC3)NC2=C(NC(=O)/C(C)=C/C=C/[C@H](C)[C@H](O)[C@@H](C)[C@@H](O)[C@@H](C)[C@H](OC(=O)NC2CC(C)(C)NC(C)(C)C2)[C@@H]1C)C4=O
ƒu / %: 6.7
--
cpd_smiles: CO[C@H]1/C=C/O[C@@]2(C)Oc3c(C)c(O)c4c(c3C2=O)C2=NC3(CCN(CC(C)C)CC3)NC2=C(NC(=O)/C(C)=C/C=C/[C@H](C)[C@H](O)[C@@H](C)[C@@H](O)[C@@H](C)[C@H](OC(=O)Nc2ccncn2)[C@@H]1C)C4=O
ƒu / %: 5.1

Kindly review the next compound as well.
*Q* Answer with the recorded ƒu of "CO[C@H]1/C=C/O[C@@]2(C)Oc3c(C)c(O)c4c(c3C2=O)C2=NC3(CCN(CC(C)C)CC3)NC2=C(NC(=O)/C(C)=C/C=C/[C@H](C)[C@H](O)[C@@H](C)[C@@H](O)[C@@H](C)[C@H](OC(=O)NC2CCN(CC(C)C)CC2)[C@@H]1C)C4=O" only.
*A* 3.6

----------
Test: Mouse pharmacokinetics studies
Type: in vivo, CD-1 mice
Conditions: female, CD-1, mouse, in vivo, 10 mg/kg
reported_property: Vd (L/kg)
Please respond with the number in L/kg and leave the unit unwritten.

*Q* Answer with the recorded Vd of CO[C@H]1/C=C/O[C@@]2(C)Oc3c(C)c(O)c4c(c3C2=O)C2=NC3(CCN(CC(C)C)CC3)NC2=C(NC(=O)/C(C)=C\C=C\[C@H](C)[C@H](O)[C@@H](C)[C@@H](O)[C@@H](C)[C@H](OC(C)=O)[C@@H]1C)C4=O [rifabutin, reference compound] only.
*A* 3.51

----------
Assay: Mouse pharmacokinetics studies
Format: in vivo, CD-1 mice
Details: female, CD-1, mouse, in vivo
Known clearance of a selection of compounds
Please respond with the number in mL/min/kg and leave the unit unwritten.

Sample records with clearance:
compound: CO[C@H]1/C=C/O[C@@]2(C)Oc3c(C)c(O)c4c(c3C2=O)C2=NC3(CCN(CC(C)C)CC3)NC2=C(NC(=O)/C(C)=C\C=C\[C@H](C)[C@H](O)[C@@H](C)[C@@H](O)[C@@H](C)[C@H](OC(C)=O)[C@@H]1C)C4=O [rifabutin, reference compound]
clearance [mL/min/kg]: 10.3

compound: CO[C@H]1/C=C/O[C@@]2(C)Oc3c(C)c(O)c4c(c3C2=O)C2=NC3(CCN(CC(C)C)CC3)NC2=C(NC(=O)/C(C)=C/C=C/[C@H](C)[C@H](O)[C@@H](C)[C@@H](O)[C@@H](C)[C@H](OC(=O)c2cccnc2)[C@@H]1C)C4=O [UMN22]
clearance [mL/min/kg]: 3

Kindly review the next compound as well.
*Q* Answer with the recorded clearance of CO[C@H]1/C=C/O[C@@]2(C)Oc3c(C)c(O)c4c(c3C2=O)C2=NC3(CCN(CC(C)C)CC3)NC2=C(NC(=O)/C(C)=C/C=C/[C@H](C)[C@H](O)[C@@H](C)[C@@H](O)[C@@H](C)[C@H](OC(=O)c2cncnc2)[C@@H]1C)C4=O [UMN46] only.
*A* 4

----------
System: M. abscessus ATCC 19977
Assay: MIC assay in 96-well plate format, wild-type strain
Assay type: cell-based, Mycobacterium abscessus
Conditions: M. abscessus ATCC 19977; 90% growth inhibition; read-out: WT Mab MIC
reported_property: log10 MIC (log10 of the value in µM)
Please note: log10 values; quantity MIC; unit µM.

compound: CO[C@H]1/C=C/O[C@@]2(C)Oc3c(C)c(O)c4c(c3C2=O)C2=NC3(CCN(CC(C)C)CC3)NC2=C(NC(=O)/C(C)=C/C=C/[C@H](C)[C@H](O)[C@@H](C)[C@@H](O)[C@@H](C)[C@H](OC(=O)c2cccc(C)c2)[C@@H]1C)C4=O
reported_property: log10 MIC
test_result: -1.12
--
compound: CO[C@H]1/C=C/O[C@@]2(C)Oc3c(C)c(O)c4c(c3C2=O)C2=NC3(CCN(CC(C)C)CC3)NC2=C(NC(=O)/C(C)=C/C=C/[C@H](C)[C@H](O)[C@@H](C)[C@@H](O)[C@@H](C)[C@H](OC(=O)c2nccs2)[C@@H]1C)C4=O
reported_property: log10 MIC
test_result: -1.77
--
compound: CO[C@H]1/C=C/O[C@@]2(C)Oc3c(C)c(O)c4c(c3C2=O)C2=NC3(CCN(CC(C)C)CC3)NC2=C(NC(=O)/C(C)=C/C=C/[C@H](C)[C@H](O)[C@@H](C)[C@@H](O)[C@@H](C)[C@H](OC(=O)c2cccnc2)[C@@H]1C)C4=O
reported_property: log10 MIC
test_result: -1.62
--
compound: CO[C@H]1/C=C/O[C@@]2(C)Oc3c(C)c(O)c4c(c3C2=O)C2=NC3(CCN(CC(C)C)CC3)NC2=C(NC(=O)/C(C)=C/C=C/[C@H](C)[C@H](O)[C@@H](C)[C@@H](O)[C@@H](C)[C@H](OC(=O)c2cncnc2)[C@@H]1C)C4=O
reported_property: log10 MIC
test_result: -1.74

*Q* Please report the measured log10 MIC for CCC(C)C(=O)OC1C(C)C(OC)C=COC2(C)Oc3c(C)c(O)c4c(c3C2=O)C2=NC3(CCN(CC(C)C)CC3)NC2=C(NC(=O)C(C)=CC=CC(C)C(O)C(C)C(O)C1C)C4=O (mixture of isomers) tested on M. abscessus ATCC 19977.
*A* 0.04
